system: CFTR chloride channel (F508del-CFTR) (Homo sapiens, UniProt P13569, DEL508-508)
Sequence (P13569 with tags, fused parts or gaps DEL508-508): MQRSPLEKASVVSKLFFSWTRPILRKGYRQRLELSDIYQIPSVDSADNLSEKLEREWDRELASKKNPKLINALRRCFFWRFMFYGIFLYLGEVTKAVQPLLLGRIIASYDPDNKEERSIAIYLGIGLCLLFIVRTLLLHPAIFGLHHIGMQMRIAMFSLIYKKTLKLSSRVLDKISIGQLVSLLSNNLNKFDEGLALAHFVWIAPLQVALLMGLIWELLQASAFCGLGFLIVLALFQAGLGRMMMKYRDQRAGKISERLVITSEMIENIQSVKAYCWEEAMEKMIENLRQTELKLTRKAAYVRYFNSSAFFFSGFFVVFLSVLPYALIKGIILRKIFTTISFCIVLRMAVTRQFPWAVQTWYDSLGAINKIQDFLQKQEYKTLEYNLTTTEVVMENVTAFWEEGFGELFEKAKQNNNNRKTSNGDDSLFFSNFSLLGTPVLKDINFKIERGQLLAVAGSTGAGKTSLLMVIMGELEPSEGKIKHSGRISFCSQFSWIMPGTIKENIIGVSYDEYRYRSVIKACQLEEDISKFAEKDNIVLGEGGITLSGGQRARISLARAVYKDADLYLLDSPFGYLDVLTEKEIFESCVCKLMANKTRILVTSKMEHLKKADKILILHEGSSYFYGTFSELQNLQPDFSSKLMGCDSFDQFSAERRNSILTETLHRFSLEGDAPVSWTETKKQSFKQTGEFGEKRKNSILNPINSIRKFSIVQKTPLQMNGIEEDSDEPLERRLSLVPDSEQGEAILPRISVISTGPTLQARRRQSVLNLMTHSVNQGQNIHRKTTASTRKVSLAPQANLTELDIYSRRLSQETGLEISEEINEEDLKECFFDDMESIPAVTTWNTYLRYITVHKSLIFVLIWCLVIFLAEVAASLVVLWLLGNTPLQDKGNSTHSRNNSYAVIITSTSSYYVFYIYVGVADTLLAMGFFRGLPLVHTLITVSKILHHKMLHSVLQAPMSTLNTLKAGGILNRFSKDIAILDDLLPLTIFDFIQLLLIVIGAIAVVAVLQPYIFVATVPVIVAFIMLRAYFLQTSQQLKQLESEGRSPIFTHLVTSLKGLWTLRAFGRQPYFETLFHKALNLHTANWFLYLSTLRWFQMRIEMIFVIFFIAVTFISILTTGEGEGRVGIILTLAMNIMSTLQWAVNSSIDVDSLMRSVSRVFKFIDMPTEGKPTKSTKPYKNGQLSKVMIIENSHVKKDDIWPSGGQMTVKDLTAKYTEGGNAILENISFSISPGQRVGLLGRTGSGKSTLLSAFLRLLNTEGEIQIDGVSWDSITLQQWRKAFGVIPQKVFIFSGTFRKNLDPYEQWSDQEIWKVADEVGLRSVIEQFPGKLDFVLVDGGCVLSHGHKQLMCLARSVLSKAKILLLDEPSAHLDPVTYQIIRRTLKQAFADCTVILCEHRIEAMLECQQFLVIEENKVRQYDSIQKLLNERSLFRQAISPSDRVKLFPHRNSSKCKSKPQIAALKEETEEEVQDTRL
protocol-text: HS-YFP functional rescue in CFBE41o- cells; CFTR fragment stabilization by immunoblot in HEK293T cells
quantity-kind: EC50 (µM)
Hi! Could you send only the number? It should be in µM, unit omitted.

query: # return EC50 of CCOC(=O)c1c(Br)c2c(n1Cc1cccc(C)c1)-c1[nH]c(=O)c(S(=O)(=O)c3ccccc3)cc1CC2 [PP028] (system: CFTR chloride channel (F508del-CFTR) (Homo sapiens, UniProt P13569, DEL508-508))
result: 1.1

The measured values listed here are drawn from paper PMC10172366.
